Test system: S. typhimurium ATCC 14028
Type: cell-based, Salmonella typhimurium
Settings: ATCC 14028, 24 h
Where a SMILES comes first, the peptide text is derived from it. The star is where a group is joined. Lauroyl = CCCCCCCCCCCC(=O)*
Please go through the items and note down their MIC.
Give bare numbers, in mg/L.

Known results for molecules:
| Molecule | Display Unit | MIC |
| --- | --- | --- |
| CCCCCCCCCCCC(=O)N[C@@H](CCCNC(=N)N)C(=O)N[C@@H](CCCNC(=N)N)C(=O)N[C@@H](Cc1ccccc1)C(=O)N[C@@H](Cc1c[nH]c2ccccc12)C(=O)N[C@@H](CCCNC(=N)N)C(=O)N[C@@H](CCCNC(=N)N)C(N)=O [Lp-F^RR, Lau-RRFWRR-NH2] (Lauroyl-RRFWRR-NH2) | mg/L | 25 |
| CCCCCCCCCCCC(=O)N[C@@H](CCCNC(=N)N)C(=O)N[C@H](C(=O)N[C@@H](Cc1c[nH]c2ccccc12)C(=O)N[C@@H](CCCNC(=N)N)C(N)=O)[C@@H](C)CC [Lp-I] (Lauroyl-RIWR-NH2) | mg/L | 25 |
| CCCCCCCCCCCC(=O)N[C@@H](CCCNC(=N)N)C(=O)N[C@@H](CCCNC(=N)N)C(=O)N[C@@H](Cc1c[nH]c2ccccc12)C(=O)N[C@@H](CCCNC(=N)N)C(N)=O [Lp-R, Lau-RRWR-NH2] (Lauroyl-RRWR-NH2) | mg/L | 100 |

Look up S. typhimurium ATCC 14028 data: MIC of CCCCCCCCCCCC(=O)N[C@@H](CCCNC(=N)N)C(=O)N[C@@H](CCCNC(=N)N)C(=O)N[C@H](C(=O)N[C@@H](Cc1c[nH]c2ccccc12)C(N)=O)[C@@H](C)CC [Lau-RRIW, Lau-RRIW-NH2] (Lauroyl-RRIW-NH2) , then report it.
25

###

Please go through the items and note down their Retention time.
Assay: RP-HPLC retention time (hydrophobicity)
Type: physicochemical
Settings: stated to reliably reflect the hydrophobicity in aqueous solution, assessed and provided by GenScript
Where a SMILES comes first, the peptide text is derived from it. The star is where a group is joined. Myristoyl = CCCCCCCCCCCCCC(=O)*; Lauroyl = CCCCCCCCCCCC(=O)*
Numbers only, in min.

| Compound | Test Readout | Reading |
| --- | --- | --- |
| CCCCCCCCCCCC(=O)N[C@@H](CCCNC(=N)N)C(=O)N[C@@H](CCCNC(=N)N)C(=O)N[C@@H](Cc1ccccc1)C(=O)N[C@@H](Cc1c[nH]c2ccccc12)C(N)=O [Lau-RRFW, Lau-RRFW-NH2] (Lauroyl-RRFW-NH2) | Retention time | 22.609 |
| CCCCCCCCCCCCCC(=O)N[C@@H](CCCNC(=N)N)C(=O)N[C@@H](Cc1ccccc1)C(=O)N[C@@H](Cc1c[nH]c2ccccc12)C(=O)N[C@@H](CCCNC(=N)N)C(N)=O [Lp-F^Myr, Myr-RFWR-NH2] (Myristoyl-RFWR-NH2) | Retention time | 26.654 |

Consider the additional compound presented here.
Given the compound CCCCCCCCCCCC(=O)N[C@@H](CCCNC(=N)N)C(=O)NCC(=O)N[C@@H](Cc1c[nH]c2ccccc12)C(=O)N[C@@H](CCCNC(=N)N)C(N)=O [Lp-G, Lau-RGWR-NH2] (Lauroyl-RGWR-NH2) , write its reported Retention time.
18.415

###

Tested on: B. subtilis DSM 4181
Type: cell-based, Bacillus subtilis
Details: DSM 4181, 24 h
Text: Bacteria used in this study were Escherichia coli ATCC 25922 and O18K1H7, Staphylococcus aureus ATCC 25923 and ATCC 29213, Pseudomonas aeruginosa ATCC 27853, Staphylococcus epidermidis ATCC 12228, Enterococcus faecalis ATCC 29212, Bacillus subtilis DSM 4181, Listeria monocytogenes DSM 20600, Salmonella typhimurium ATCC 14028, Acinetobacter baumannii ATCC 19606 and 17978, Klebsiella pneumoniae ATCC 13883 and 700603, Stenotrophomonas maltophilia ATCC 13637 and Burkholderia cenocepacia J2315. […]
Where a SMILES comes first, the peptide text is derived from it. The star is where a group is joined. Lauroyl = CCCCCCCCCCCC(=O)*
Test Readout: MIC (µg/mL)
Numbers only, in µg/mL.

Known results for compounds:
| Compound | Test System | Reading |
| --- | --- | --- |
| CCCCCCCCCCCC(=O)N[C@@H](CCCNC(=N)N)C(=O)N[C@@H](CCCNC(=N)N)C(=O)N[C@@H](Cc1c[nH]c2ccccc12)C(=O)N[C@@H](CCCNC(=N)N)C(N)=O [Lp-R, Lau-RRWR-NH2] (Lauroyl-RRWR-NH2) | B. subtilis DSM 4181 | 1.56 |
| CCCCCCCCCCCC(=O)N[C@@H](CCCNC(=N)N)C(=O)N[C@@H](CCSC)C(=O)N[C@@H](Cc1c[nH]c2ccccc12)C(=O)N[C@@H](CCCNC(=N)N)C(N)=O [Lp-M, Lau-RMWR-NH2] (Lauroyl-RMWR-NH2) | B. subtilis DSM 4181 | 3.125 |
| CCCCCCCCCCCC(=O)N[C@@H](CCCNC(=N)N)C(=O)N[C@@H](CCCNC(=N)N)C(=O)N[C@@H](Cc1ccccc1)C(=O)N[C@@H](Cc1c[nH]c2ccccc12)C(=O)N[C@@H](CCCNC(=N)N)C(=O)N[C@@H](CCCNC(=N)N)C(N)=O [Lp-F^RR, Lau-RRFWRR-NH2] (Lauroyl-RRFWRR-NH2) | B. subtilis DSM 4181 | 1.56 |

Consider the additional compound presented here.
Given the compound CCCCCCCCCCCC(=O)N[C@@H](CCCNC(=N)N)C(=O)N[C@@H](CCCNC(=N)N)C(=O)N[C@H](C(=O)N[C@@H](Cc1c[nH]c2ccccc12)C(N)=O)[C@@H](C)CC [Lau-RRIW, Lau-RRIW-NH2] (Lauroyl-RRIW-NH2) , write its reported MIC.
3.125

###

Test system: L. monocytogenes DSM 20600
Assay type: cell-based, Listeria monocytogenes
Conditions: DSM 20600, 24 h
Where a SMILES comes first, the peptide text is derived from it. The star is where a group is joined. Lauroyl = CCCCCCCCCCCC(=O)*
Test Readout: MIC

| Compound | MIC |
| --- | --- |
| CCCCCCCCCCCC(=O)N[C@@H](CCCNC(=N)N)C(=O)N[C@@H](CCCNC(=N)N)C(=O)N[C@H](C(=O)N[C@@H](Cc1c[nH]c2ccccc12)C(N)=O)[C@@H](C)CC [Lau-RRIW, Lau-RRIW-NH2] (Lauroyl-RRIW-NH2) | 3.125 µg/mL |
| CCCCCCCCCCCC(=O)N[C@@H](CCCNC(=N)N)C(=O)N[C@@H](CCSC)C(=O)N[C@@H](Cc1c[nH]c2ccccc12)C(=O)N[C@@H](CCCNC(=N)N)C(N)=O [Lp-M, Lau-RMWR-NH2] (Lauroyl-RMWR-NH2) | 3.125 µg/mL |
| CCCCCCCCCCCC(=O)N[C@@H](CCCNC(=N)N)C(=O)N[C@@H](CCCNC(=N)N)C(=O)N[C@@H](Cc1ccccc1)C(=O)N[C@@H](Cc1c[nH]c2ccccc12)C(N)=O [Lau-RRFW, Lau-RRFW-NH2] (Lauroyl-RRFW-NH2) | 3.125 µg/mL |

Consider the additional compound presented here.
Look up L. monocytogenes DSM 20600 data: MIC of CCCCCCCCCCCC(=O)N[C@@H](CCCNC(=N)N)C(=O)N[C@@H](CCCNC(=N)N)C(=O)N[C@@H](Cc1ccccc1)C(=O)N[C@@H](Cc1c[nH]c2ccccc12)C(=O)N[C@@H](CCCNC(=N)N)C(=O)N[C@@H](CCCNC(=N)N)C(N)=O [Lp-F^RR, Lau-RRFWRR-NH2] (Lauroyl-RRFWRR-NH2) , then report it.
1.56 µg/mL

###

Assay: RP-HPLC retention time (hydrophobicity)
Type: physicochemical
Details: stated to reliably reflect the hydrophobicity in aqueous solution, assessed and provided by GenScript
Where a SMILES comes first, the peptide text is derived from it. The star is where a group is joined. Lauroyl = CCCCCCCCCCCC(=O)*; Octanoyl = CCCCCCCC(=O)*; Hexanoyl = CCCCCC(=O)*
Please go through the items and note down their Retention time.
Numbers only, in min.

Known results for molecules:
| Molecule | Retention time [min] |
| --- | --- |
| CCCCCCCCCCCC(=O)N[C@@H](CCCNC(=N)N)C(=O)N[C@@H](Cc1c[nH]cn1)C(=O)N[C@@H](Cc1c[nH]c2ccccc12)C(=O)N[C@@H](CCCNC(=N)N)C(N)=O [Lp-H, Lau-RHWR-NH2] (Lauroyl-RHWR-NH2) | 21.476 |
| CCCCCCCCCCCC(=O)N[C@@H](CCCNC(=N)N)C(=O)N[C@@H](CCCNC(=N)N)C(=O)N[C@H](C(=O)N[C@@H](Cc1c[nH]c2ccccc12)C(N)=O)[C@@H](C)CC [Lau-RRIW, Lau-RRIW-NH2] (Lauroyl-RRIW-NH2) | 20.957 |
| CCCCCCCC(=O)N[C@@H](CCCNC(=N)N)C(=O)N[C@@H](Cc1ccccc1)C(=O)N[C@@H](Cc1c[nH]c2ccccc12)C(=O)N[C@@H](CCCNC(=N)N)C(N)=O [Lp-F^Oct, Oct-RFWR-NH2] (Octanoyl-RFWR-NH2) | 17.974 |

For each listed entry, give its Retention time.
1. CCCCCCCCCCCC(=O)N[C@@H](CCCNC(=N)N)C(=O)N[C@@H](CCSC)C(=O)N[C@@H](Cc1c[nH]c2ccccc12)C(=O)N[C@@H](CCCNC(=N)N)C(N)=O [Lp-M, Lau-RMWR-NH2] (Lauroyl-RMWR-NH2)
2. CCCCCCCCCCCC(=O)N[C@@H](CCCNC(=N)N)C(=O)N[C@@H](CC(C)C)C(=O)N[C@@H](Cc1c[nH]c2ccccc12)C(=O)N[C@@H](CCCNC(=N)N)C(N)=O [Lp-L, Lau-RLWR-NH2] (Lauroyl-RLWR-NH2)
3. CCCCCC(=O)N[C@@H](CCCNC(=N)N)C(=O)N[C@@H](Cc1ccccc1)C(=O)N[C@@H](Cc1c[nH]c2ccccc12)C(=O)N[C@@H](CCCNC(=N)N)C(N)=O [Lp-F^Hex, Hex-RFWR-NH2] (Hexanoyl-RFWR-NH2)

1: 12.393; 2: 23.079; 3: 18.675
